target: porcine pancreatic PLA2 (Sus scrofa); construct: purchased Sigma; assay: MHPLA2 assay: in vitro porcine pancreatic phospholipase A2, mixed micelle design, [s]=10 μm; format: biochemical; settings: dose 25 μ/ml, subs. con. 10, read-out: % Inh. Avg.
assayEndpoint: inhibition at 25 µg/mL (%)
Answers are plain numbers, in %.

Example molecules with recorded inhibition at 25 µg/mL:
| molecule | testSystem | unitSpec | reportedResult |
| --- | --- | --- | --- |
| CCCCCCCCCCCCCCCCOCC(COP(=O)([O-])OCC[N+](C)(C)C)OCC(=O)O (stereo not drawn) | porcine pancreatic PLA2 (Sus scrofa) | % | 30 |
| CCCCCCCCCCCCCCCCOCC(COP(=O)([O-])OCC[N+](C)(C)C)OP(=O)(OC)OCCCCCCCCCCCCCCCC (stereo not drawn) | porcine pancreatic PLA2 (Sus scrofa) | % | 62 |
| CCCCCCCCCCCCCCCCOCC(COP(=O)([O-])OCC[N+](C)(C)C)CC(N)CCCCCCCCCCCCCCCC (stereo not drawn) | porcine pancreatic PLA2 (Sus scrofa) | % | 77 |
| CCCCCCCCCCCCCCCCOCC(COP(=O)([O-])OCC[N+](C)(C)C)OC(=O)C(Br)CCCCCCCCCCCCCCCC (stereo not drawn) | porcine pancreatic PLA2 (Sus scrofa) | % | 10 |

# per-item lookup of inhibition at 25 µg/mL; items listed below
1. CCCCCCCCCCCCCCCCOCC(COP(=O)([O-])OCC[N+](C)(C)C)OC(=O)CCl (stereo not drawn)
2. CCCCCCCCCCCCCCCCOCC(COP(=O)([O-])OCC[N+](C)(C)C)OC(=O)CBr (stereo not drawn)

[3, 50]

---

biological target: porcine pancreatic PLA2 (Sus scrofa, UniProt P00592); construct: purchased Sigma; experiment: PLA2 assay: in vitro porcine pancreatic phospholipase A2, preincubation of drug+enzyme, substrate 2 nM; type: biochemical; settings: IC50, preincubation; subs. con. 2
Sequence (P00592 23-146): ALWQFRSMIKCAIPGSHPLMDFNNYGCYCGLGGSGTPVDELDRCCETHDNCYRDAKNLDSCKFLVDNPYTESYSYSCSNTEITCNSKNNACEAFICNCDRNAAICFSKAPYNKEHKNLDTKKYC
assayEndpoint: IC50 (µM)
Answers are plain numbers, in µM.

Reported IC50 for CCCCCCCCCCCCCCCCOCC(COP(=O)([O-])OCC[N+](C)(C)C)COP(=O)(Oc1ccccc1)Oc1ccccc1 (stereo not shown) : what is it?
6.59

---

target: porcine pancreatic PLA2 (Sus scrofa); construct: purchased Sigma; assay: HPLA2 assay: in vitro porcine pancreatic phospholipase A2, preincubation design, [s]=10 μm; type: biochemical; settings: dose 20 μ/ml, subs. con. 10, read-out: % Inh. Avg.
For each record, write down the corresponding inhibition at 20 µg/mL.
One number for each entry, in %.

| compound | testSystem | assayEndpoint | reportedResult |
| --- | --- | --- | --- |
| CCCCCCCCCCCCCCCCOC[C@@H](COP(=O)([O-])OCC[N+](C)(C)C)OP(=O)(OC)OCCCCCCCCCCCCCCCC (single isomer, unassigned) | porcine pancreatic PLA2 (Sus scrofa) | inhibition at 20 µg/mL | 18 |
| CCCCCCCCCCCCCCCCOCC(COP(=O)([O-])OCC[N+](C)(C)C)OP(=O)(O)OCCCCCCCCCCCCCCCC (single isomer, unassigned; more polar) | porcine pancreatic PLA2 (Sus scrofa) | inhibition at 20 µg/mL | 22 |

# per-item lookup of inhibition at 20 µg/mL; items listed below
1. CCCCCCCCCCCCCCCCOC[C@H](COP(=O)([O-])OCC[N+](C)(C)C)OP(=O)(OC)OCCCCCCCCCCCCCCCC (single isomer, unassigned)
2. CCCCCCCCCCCCCCCCOCC(COP(=O)([O-])OCC[N+](C)(C)C)C[S+]([O-])CCCCCCCCCCCCCCCC (stereo not shown)

1: 21; 2: 33
